- Tested on: SK-MEL-2
- experiment_notes: Growth inhibition of human SK-MEL-2 cells assessed as growth inhibition at 10 uM by sulforhodamine B assay
- Assay type: functional
- condition_parameters: read-out: GI
Listing: inhibition of growth at 10 µM of selected compounds

smiles_repr: CC1(C)C[C@@H](O)[C@]2(C(=O)O)CC[C@]3(C)C(=CC[C@@H]4[C@@]5(C)C/C(=C\C=C\c6ccccc6)C(=O)C(C)(C)[C@@H]5CC[C@]43C)[C@@H]2C1
result: 35.4%
--
smiles_repr: CC(C)=CC(=O)O[C@@H]1CC(C)(C)C[C@H]2C3=CC[C@@H]4[C@@]5(C)CC[C@H](O)C(C)(C)[C@@H]5CC[C@@]4(C)[C@]3(C)CC[C@@]12C(=O)O
result: 13.5%

Next item in the queue.
Summary line: CC1(C)C[C@@H](O)[C@]2(C(=O)O)CC[C@]3(C)C(=CC[C@@H]4[C@@]5(C)CC[C@H](O)C(C)(C)[C@@H]5CC[C@]43C)[C@@H]2C1 , SK-MEL-2, reported inhibition of growth at 10 µM = < 10%

====

- System: HCT-116
- experiment_notes: Growth inhibition of human HCT116 cells by sulforhodamine B assay
- Assay type: functional
- condition_parameters: read-out: pTGI (converted)
Listing: TGI of selected compounds

Consider the reported TGI for these compounds:
smiles_repr: CC1(C)C[C@@H](O)[C@]2(C(=O)O)CC[C@]3(C)C(=CC[C@@H]4[C@@]5(C)C/C(=C\C=C\c6ccccc6)C(=O)C(C)(C)[C@@H]5CC[C@]43C)[C@@H]2C1
result: 11.2 µM
--
smiles_repr: CC(C)=CC(=O)O[C@@H]1CC(C)(C)C[C@H]2C3=CC[C@@H]4[C@@]5(C)CCC(=O)C(C)(C)[C@@H]5CC[C@@]4(C)[C@]3(C)CC[C@@]12C(=O)O
result: 53.7 µM

Record C/C=C(/C)C(=O)O[C@@H]1CC(C)(C)C[C@H]2C3=CC[C@@H]4[C@@]5(C)CC[C@H](O)C(C)(C)[C@@H]5CC[C@@]4(C)[C@]3(C)CC[C@@]12C(=O)O . Reported TGI: 10.2 µM

Record CC(C)=CC(=O)O[C@@H]1CC(C)(C)C[C@H]2C3=CC[C@@H]4[C@@]5(C)CC[C@H](O)C(C)(C)[C@@H]5CC[C@@]4(C)[C@]3(C)CC[C@@]12C(=O)O . Reported TGI: 15.8 µM

Record C/C=C(/C)C(=O)O[C@@H]1CC(C)(C)C[C@H]2C3=CC[C@@H]4[C@@]5(C)CCC(=O)C(C)(C)[C@@H]5CC[C@@]4(C)[C@]3(C)CC[C@@]12C(=O)O . Reported TGI: > 100 µM

====

- Tested on: SNB-19
- experiment_notes: Growth inhibition of human SNB19 cells assessed as cell growth at 10 uM by sulforhodamine B assay
- Type: functional
- condition_parameters: read-out: Activity
Listing: growth at 10 µM of selected molecules
Give the value in % but do not write % after it.

Consider the reported growth at 10 µM for these molecules:
smiles_repr: CC(C)=CC(=O)O[C@@H]1CC(C)(C)C[C@H]2C3=CC[C@@H]4[C@@]5(C)CCC(=O)C(C)(C)[C@@H]5CC[C@@]4(C)[C@]3(C)CC[C@@]12C(=O)O
study_system: SNB-19
parameter_measured: growth at 10 µM
measured_number: 57.3
//
smiles_repr: CC1(C)C[C@@H](O)[C@]2(C(=O)O)CC[C@]3(C)C(=CC[C@@H]4[C@@]5(C)CC[C@H](O)C(C)(C)[C@@H]5CC[C@]43C)[C@@H]2C1
study_system: SNB-19
parameter_measured: growth at 10 µM
measured_number: 98.2
//
smiles_repr: C/C=C(/C)C(=O)O[C@@H]1CC(C)(C)C[C@H]2C3=CC[C@@H]4[C@@]5(C)CCC(=O)C(C)(C)[C@@H]5CC[C@@]4(C)[C@]3(C)CC[C@@]12C(=O)O
study_system: SNB-19
parameter_measured: growth at 10 µM
measured_number: 59.4

Record COc1cc(/C=C2\C[C@]3(C)[C@H]4CC=C5[C@@H]6CC(C)(C)C[C@@H](O)[C@]6(C(=O)O)CC[C@@]5(C)[C@]4(C)CC[C@H]3C(C)(C)C2=O)ccc1O . Reported growth at 10 µM: 97

Record CC(C)=CC(=O)O[C@@H]1CC(C)(C)C[C@H]2C3=CC[C@@H]4[C@@]5(C)CC[C@H](O)C(C)(C)[C@@H]5CC[C@@]4(C)[C@]3(C)CC[C@@]12C(=O)O . Reported growth at 10 µM: 85.6
